Test: chemical genetic growth profiling, strain panel (AID 1159580);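 further: tested at 20 µM; growth read once vehicle control cultures reached saturation at 30 °C; 1 = growth at the plate median or of vehicle wells; lower values mean less growth of the strain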
Settings: S. cerevisiae deletion strains, growth OD, locus YLR102C, strain apc9, active compounds read low
Hit rate of the full screen: of about 5,500 compounds, about 2,000 (36%) were called active. Not shown: some 18% with an inconclusive outcome. The list shows a part of the results.
measuredEndpoint: normalized growth
Give bare numbers.

Worked examples, 5 compounds total:
{"compound": "COc1ccc(C(=O)CC(=O)c2ccc(C(C)(C)C)cc2)cc1", "measuredEndpoint": "normalized growth", "observedResult": 1}
{"compound": "COc1ccc(C(=O)N2CCCC2=O)cc1", "measuredEndpoint": "normalized growth", "observedResult": 0.979}
{"compound": "Cc1cc(=O)oc2c(O)c(O)ccc12", "measuredEndpoint": "normalized growth", "observedResult": 1.01}
{"compound": "O=C(O)c1ccccc1C(=O)Nc1ccc(S(=O)(=O)Nc2nccs2)cc1", "measuredEndpoint": "normalized growth", "observedResult": 0.99}
{"compound": "C[C@]12C=CC(=O)C=C1CCC1C3C[C@@H](O)[C@](O)(C(=O)CO)[C@@]3(C)C[C@H](O)[C@@]12F (stereo partly specified)", "measuredEndpoint": "normalized growth", "observedResult": 0.981}

Now, please, on to the next compound.
Query: For the compound `CCCC(CCC)C(=O)O` , give its reported normalized growth.
Reply: 0.977

###

Assay: chemical genetic growth profiling, strain panel (AID 1159580)
Conditions: S. cerevisiae deletion strains, growth OD, locus YOL147C, strain pex11, active compounds read low
Among all 5,500 compounds or so, about 2,000 (36%) were called active. About 18% were inconclusive and are not listed. The list shows a part of the results.
measuredEndpoint: normalized growth
Numbers only.

Worked examples, 3 compounds total:
{"compound": "COc1cc(C(=O)O)c2c(c1C)OC(=O)c1c(C)cc(O)c(C=O)c1O2", "measuredEndpoint": "normalized growth", "observedResult": 1.01}
{"compound": "Cc1cc(O)c(C)c2c1C(=O)Oc1c(C)c(O)c(C(=O)O)c(C)c1O2", "measuredEndpoint": "normalized growth", "observedResult": 0.988}
{"compound": "Cc1cc(O)c(C=O)c2c1C(=O)Oc1c(C)c(O)c3c(c1O2)C(O)OC3=O (stereo not given)", "measuredEndpoint": "normalized growth", "observedResult": 0.97}

Hi there! I need normalized growth for each item below, if you can.
1. COC(=O)CCC(C)C1CCC2C3CC[C@@H]4C[C@H](O)CC[C@]4(C)C3C[C@H](O)[C@]12C (stereo not given in full)
2. CC(CCC(=O)O)[C@H]1CCC2C3CC[C@@H]4CCCC[C@]4(C)C3CC[C@@]21C (stereo not given in full)
3. COc1ccc(C(=O)CC(=O)c2ccc(C(C)(C)C)cc2)cc1
4. CC(CCC(=O)O)[C@H]1CCC2C3C[C@H](O)[C@@H]4C[C@H](O)CC[C@]4(C)C3CC[C@@]21C (stereo not given in full)
5. COc1ccc(C(=O)N2CCCC2=O)cc1

Reply:
[1.02, 0.993, 1, 1.03, 0.99]

Hi there! I need normalized growth for each item below, if you can.
1. S=P(N1CC1)(N1CC1)N1CC1
2. CC(C)CCCC(C)C1CCC2C3CC[C@H]4CCCC[C@]4(C)C3CC[C@]12C (stereo not given in full)

Reply:
[1.04, 0.992]

###

For each entry below, report its normalized growth value.
Assay: chemical genetic growth profiling, strain panel (AID 1159580);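 further: tested at 20 µM; growth read once vehicle control cultures reached saturation at 30 °C; 1 = growth at the plate median or of vehicle wells; lower values mean less growth of the strain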
Settings: S. cerevisiae deletion strains, growth OD, locus YPL256C, strain CLN2, active compounds read low
About 2,000 (36%) of roughly 5,500 compounds were called active. About 18% were inconclusive and are not listed. The list shows a part of the results.

{"compound": "COc1ccc(CC2CCC(=NOC(=O)c3ccc(C(C)(C)C)cc3)CC2)cc1 (stereo not given)", "normalized growth": "0.881 (inactive)"}
{"compound": "COc1ccc(CC2CCC(=NOC(=O)c3c(Cl)cccc3Cl)CC2)cc1 (stereo not given)", "normalized growth": "0.941 (inactive)"}
{"compound": "C=C1[C@H]2CC[C@@]3(C)[C@H](c4ccoc4)OC(=O)C[C@]13O[C@H]1C[C@H](O)C(C)(C)[C@H](CC(=O)OC)[C@]12C", "normalized growth": "0.981 (inactive)"}

Hi there! I need normalized growth for each item below, if you can.
1. O=c1cc(-c2cc(O)c(O)c(O)c2)oc2cc(O)cc(O)c12
2. O=c1cc(-c2ccccc2)oc2cc(O)c(O)cc12
3. O=c1cc(-c2ccccc2)oc2c(O)c(O)ccc12
4. O=c1cc(-c2ccc(O)cc2)oc2cc(O)cc(O)c12
5. C=C1C2CC[C@@]3(C)[C@H](c4ccoc4)OC(=O)C[C@]13O[C@H]1CC(O)C(C)(C)C(CC(=O)OC)[C@@]21C (stereo not given in full)
6. O=c1cc(-c2ccccc2)oc2cc(O)cc(O)c12
7. O=C1/C(=C/c2cccs2)COc2ccccc21

Reply:
1.06 (inactive)
0.955 (inactive)
1.06 (inactive)
1.01 (inactive)
0.939 (inactive)
0.891 (inactive)
0.802 (active)

###

Experiment: chemical genetic growth profiling, strain panel (AID 1159580);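 further: tested at 20 µM; growth read once vehicle control cultures reached saturation at 30 °C; 1 = growth at the plate median or of vehicle wells; lower values mean less growth of the strain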
Conditions: S. cerevisiae deletion strains, growth OD, locus YML016C, strain PPZ1, active compounds read low
The campaign covered roughly 5,500 compounds. About 2,000 (36%) were called active. Inconclusive results (about 18%) are left out. The list shows a part of the results.
measuredEndpoint: normalized growth
Numbers only.

Hi there! I need normalized growth for each item below, if you can.
1. CN(C)CCOC(=O)COc1ccc(Cl)cc1
2. C[C@H](CCC(=O)O)[C@H]1CCC2C3C(CC[C@@]21C)[C@@]1(C)CC[C@@H](O)C[C@H]1C[C@@H]3O (stereo partly specified)
3. CC1=C2[C@H]3OC(=O)[C@@H](C)[C@@H]3CC[C@@]2(C)C=CC1=O
4. COC(=O)CCC(C)C1CCC2C3CC[C@@H]4C[C@H](O)CC[C@]4(C)C3C[C@H](O)[C@]12C (stereo partly specified)

Reply:
1.02
0.978
1.02
1.05

Hi there! I need normalized growth for each item below, if you can.
1. CN(C)CCOC(=O)C(c1ccccc1)C1(O)CCCC1 (stereo unspecified)
2. CCOC(=O)[C@H](CCc1ccccc1)N[C@@H](C)C(=O)N1Cc2ccccc2C[C@H]1C(=O)O
3. CCCCCC1C(=O)CCC1CC(=O)O (stereo unspecified)
4. COC(=O)CCC(C)[C@H]1CCC2C3C(C[C@H](O)[C@@]21C)[C@@]1(C)CC[C@@H](O)C[C@H]1C[C@H]3O (stereo partly specified)
5. CC(CCC(=O)O)[C@H]1CCC2C3CC[C@@H]4C[C@H](O)CC[C@]4(C)C3C[C@H](O)[C@@]21C (stereo partly specified)

Reply:
[1, 1, 0.995, 1.04, 1.01]

Hi there! I need normalized growth for each item below, if you can.
1. CC(=O)OCC(=O)[C@@]1(O)[C@H](OC(C)=O)CC2C3CCC4=CC(=O)C=C[C@]4(C)[C@@]3(F)[C@@H](O)C[C@@]21C (stereo partly specified)
2. COc1cc2c(cc1O)C(Cc1ccc(O)cc1)N(C)CC2 (stereo unspecified)
3. CC(=O)Nc1ccccc1
4. CCCCSP(=O)(SCCCC)SCCCC

Reply:
1. 0.996
2. 1.02
3. 0.993
4. 1.02

###

Assay: chemical genetic growth profiling, strain panel (AID 1159580);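 further: tested at 20 µM; growth read once vehicle control cultures reached saturation at 30 °C; 1 = growth at the plate median or of vehicle wells; lower values mean less growth of the strain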
Conditions: S. cerevisiae deletion strains, growth OD, locus YBR229C, strain ROT2, active compounds read low
About 2,000 (36%) of roughly 5,500 compounds were called active. Roughly 18% stayed inconclusive and do not appear here. Some of the results follow.
measuredEndpoint: normalized growth
Answers are plain numbers.

Worked examples, 5 molecules total:
{"molecule": "CC(=O)Nc1ccc(C(F)(F)F)cc1Br", "observedResult": 1.01}
{"molecule": "COC(=O)CCCOc1ccc(Cl)cc1Cl", "observedResult": 0.993}
{"molecule": "C=C1[C@H]2CC[C@@]3(C)[C@H](c4ccoc4)OC(=O)C[C@]13O[C@H]1C[C@H](O)C(C)(C)[C@H](CC(=O)OC)[C@]12C", "observedResult": 0.999}
{"molecule": "O=C(Nc1ccccc1)Nc1ccc(C(F)(F)F)cc1Br", "observedResult": 0.985}
{"molecule": "CN(C)CCOC(=O)C(c1ccccc1)C1(O)CCCC1 (centres undefined)", "observedResult": 0.998}

Hi there! I need normalized growth for each item below, if you can.
1. Clc1ccc(OCCOc2ccc(Cl)cc2)cc1
2. O=C(O)Cc1ccccc1I
3. O=S(=O)(Nc1ccc(Oc2ccc(Cl)cc2)cc1)c1ccccc1
4. O=[N+]([O-])c1cccc(-c2csc(Nc3ccccc3Cl)n2)c1
5. N[C@@H](Cc1cc(I)c(Oc2ccc(O)c(I)c2)c(I)c1)C(=O)O
6. N[C@H](Cc1ccccc1)C(=O)O
7. Cc1onc(-c2ccccc2)c1-c1nc(CSc2ccc(C(F)(F)F)cn2)no1
8. Cc1nc2sccn2c(=O)c1CCN1CCC(=C(c2ccc(F)cc2)c2ccc(F)cc2)CC1

Reply:
0.99
0.996
0.923
0.966
0.998
1.01
0.973
0.992

Hi there! I need normalized growth for each item below, if you can.
1. O=C(O)Cc1cc(I)c(Oc2cc(I)c(O)c(I)c2)c(I)c1
2. O=c1c2cc(NS(=O)(=O)c3ccc(Cl)cc3)ccc2oc2ncccc12
3. C=C1C2CC[C@@]3(C)[C@H](c4ccoc4)OC(=O)C[C@]13O[C@H]1CC(O)C(C)(C)C(CC(=O)OC)[C@@]21C (some centres undefined)
4. N#Cc1cccc(Cn2c(=O)oc3ccccc32)c1
5. CCCC(C(=O)OCCN(CC)CC)(c1ccccc1)c1ccccc1
6. C[C@@H](N)[C@@H](O)c1ccccc1

Reply:
0.936
1.02
0.995
0.991
1.01
0.967
